Recorded values, source patent US9346809B2.

# reported EC50; entries follow
Target: JAK1 (aa 850-1154, catalytic domain, GST-tag) (Homo sapiens)
Construct: JAK1 (aa 850-1154) and TYK2 (aa 871-1187) are expressed with an N-terminally fused GST-tag; GST (N); purchased Carna Biosciences, Inc; host or cells: baculovirus expression system
Sequence (P23458 850-1154): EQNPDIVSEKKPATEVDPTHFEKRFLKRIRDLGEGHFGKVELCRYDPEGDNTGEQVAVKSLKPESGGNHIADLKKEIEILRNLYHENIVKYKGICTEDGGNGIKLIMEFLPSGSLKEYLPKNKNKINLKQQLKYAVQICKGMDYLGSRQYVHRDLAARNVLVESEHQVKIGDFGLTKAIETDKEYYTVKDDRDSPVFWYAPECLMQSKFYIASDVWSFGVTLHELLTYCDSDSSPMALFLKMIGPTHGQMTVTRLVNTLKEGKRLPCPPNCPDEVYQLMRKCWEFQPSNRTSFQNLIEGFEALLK
Experiment: JAK kinase assay (HTRF, phosphorylation of TK substrate-biotin), JAK1
Type: biochemical
Details: ATP at Km (7 μM); read-out: JAK1 kinase inhibitory activity (EC50 indicator)
recorded endpoint: EC50

[[record]]
compound = "O=C(Cc1ccccc1)N1CCN(c2ncnc3[nH]ccc23)CC12CC2 [Example 152]"
recorded_endpoint = "EC50"
measured_value = "< 100 nM"

[[record]]
compound = "O=C([C@H]1CC[C@H](O)CC1)N1CCN(c2ncnc3[nH]ccc23)CC12CC2 [Example 158]"
recorded_endpoint = "EC50"
measured_value = "100 to 500 nM"

[[record]]
compound = "O=C1OCCC1NC(=S)N1[C@@H]2CC[C@H]1CN(c1ncnc3[nH]ccc13)C2 (stereo partly drawn) [Example 47]"
recorded_endpoint = "EC50"
measured_value = "100 to 500 nM"

[[record]]
compound = "N#Cc1ccc(C(F)(F)C(=O)N2CCN(c3ncnc4[nH]ccc34)CC23CC3)cc1 [Example 64]"
recorded_endpoint = "EC50"
measured_value = "< 100 nM"

[[record]]
compound = "CC(C)S(=O)(=O)c1ccc(C(=O)N2CCN(c3ncnc4[nH]ccc34)CC23CC3)cc1 [Example 196]"
recorded_endpoint = "EC50"
measured_value = "< 100 nM"

[[record]]
compound = "O=C(CCC(F)(F)F)N1CCN(c2ncnc3[nH]ccc23)CC12CC2 [Example 28]"
recorded_endpoint = "EC50"
measured_value = "< 100 nM"

[[record]]
compound = "N#Cc1cccc(C(=O)N2[C@@H]3CC[C@@H]2CN(c2ncnc4[nH]ccc24)C3)c1 [Example 173]"
recorded_endpoint = "EC50"
measured_value = "< 100 nM"

[[record]]
compound = "Cc1c(C(=O)N2CCN(c3ncnc4[nH]ccc34)CC23CC3)[nH]c2ccc(F)cc12 [Example 185]"
recorded_endpoint = "EC50"
measured_value = "100 to 500 nM"

[[record]]
compound = "O=C(CC(F)(F)F)N1[C@@H]2CC[C@H]1CN(c1ncnc3[nH]ccc13)C2 [Example 40]"
recorded_endpoint = "EC50"
measured_value = "100 to 500 nM"

[[record]]
compound = "O=C(C1CCOC1)N1CCN(c2ncnc3[nH]ccc23)CC12CC2 (stereo not drawn) [Example 7]"
recorded_endpoint = "EC50"
measured_value = "100 to 500 nM"

[[record]]
compound = "O=C(c1ccc(CO)cc1)N1CCN(c2ncnc3[nH]ccc23)CC12CC2 [Example 155]"
recorded_endpoint = "EC50"
measured_value = "< 100 nM"

[[record]]
compound = "O=C1CC(C(=O)N2CCN(c3ncnc4[nH]ccc34)CC23CC3)c2ccccc21 (stereo not drawn) [Example 126]"
recorded_endpoint = "EC50"
measured_value = "< 100 nM"

[[record]]
compound = "CC1CN(C(=O)c2cccc(C#N)c2)C2(CC2)CN1c1ncnc2[nH]ccc12 (stereo not drawn) [Example 145]"
recorded_endpoint = "EC50"
measured_value = "< 100 nM"

[[record]]
compound = "N#Cc1ccc(C(=O)N2[C@@H]3CC[C@H]2CN(c2ncnc4[nH]ccc24)C3)s1 [Example 71]"
recorded_endpoint = "EC50"
measured_value = "< 100 nM"

[[record]]
compound = "N#CCC(=O)N1[C@@H]2CC[C@H]1CN(c1ncnc3[nH]ccc13)C2 [Example 53]"
recorded_endpoint = "EC50"
measured_value = "100 to 500 nM"

[[record]]
compound = "CNS(=O)(=O)c1ccc(C(=O)N2CCN(c3ncnc4[nH]ccc34)CC23CC3)cc1 [Example 104]"
recorded_endpoint = "EC50"
measured_value = "< 100 nM"

[[record]]
compound = "O=C(CC1CCCC1)N1[C@@H]2CC[C@H]1CN(c1ncnc3[nH]ccc13)C2 [Example 38]"
recorded_endpoint = "EC50"
measured_value = "< 100 nM"

[[record]]
compound = "O=C(Cc1cccnc1)N1CCN(c2ncnc3[nH]ccc23)CC12CC2 [Example 4]"
recorded_endpoint = "EC50"
measured_value = "100 to 500 nM"

[[record]]
compound = "CS(=O)(=O)c1ccc(CC(=O)N2C3CCC2CN(c2ncnc4[nH]ccc24)C3)cc1 [Example 134]"
recorded_endpoint = "EC50"
measured_value = "100 to 500 nM"

[[record]]
compound = "Cc1cnc(C(=O)N2[C@@H]3CC[C@H]2CN(c2ncnc4[nH]ccc24)C3)cn1 [Example 74]"
recorded_endpoint = "EC50"
measured_value = "100 to 500 nM"

[[record]]
compound = "O=C(C1CCOC1)N1C2CCC1CN(c1ncnc3[nH]ccc13)C2 (stereo not drawn) [Example 144]"
recorded_endpoint = "EC50"
measured_value = "100 to 500 nM"

[[record]]
compound = "N#Cc1cccc(CS(=O)(=O)N2[C@@H]3CC[C@H]2CN(c2ncnc4[nH]ccc24)C3)c1 [Example 77]"
recorded_endpoint = "EC50"
measured_value = "< 100 nM"

[[record]]
compound = "N#CCCN1CCCC(C(=O)N2CCN(c3ncnc4[nH]ccc34)CC23CC3)C1 (stereo not drawn) [Example 95]"
recorded_endpoint = "EC50"
measured_value = "100 to 500 nM"

[[record]]
compound = "O=C(c1ccccn1)N1CCN(c2ncnc3[nH]ccc23)CC12CC2 [Example 2]"
recorded_endpoint = "EC50"
measured_value = "< 100 nM"

[[record]]
compound = "N#CCc1ccc(C(=O)N2[C@@H]3CC[C@@H]2CN(c2ncnc4[nH]ccc24)C3)cc1 [Example 175]"
recorded_endpoint = "EC50"
measured_value = "< 100 nM"

[[record]]
compound = "CC(=O)OCC(=O)Nc1nc(N2CCN(C(=O)Cc3ccc(C#N)cc3)C3(CC3)C2)c2cc[nH]c2n1 [Example 100]"
recorded_endpoint = "EC50"
measured_value = "< 100 nM"

[[record]]
compound = "O=C(c1cccc(-c2ccccc2)c1)N1CCN(c2ncnc3[nH]ccc23)CC12CC2 [Example 6]"
recorded_endpoint = "EC50"
measured_value = "< 100 nM"

[[record]]
compound = "S=C(NCc1ccccc1)N1[C@@H]2CC[C@H]1CN(c1ncnc3[nH]ccc13)C2 [Example 11]"
recorded_endpoint = "EC50"
measured_value = "< 100 nM"

[[record]]
compound = "CN(CC#N)C(=O)C1(C(=O)N2CCN(c3ncnc4[nH]ccc34)CC23CC3)CC1 [Example 86]"
recorded_endpoint = "EC50"
measured_value = "> 500 nM"

[[record]]
compound = "N#CCc1ccc(C(=O)N2CCN(c3ncnc4[nH]ccc34)CC23CC3)cc1 [Example 18]"
recorded_endpoint = "EC50"
measured_value = "< 100 nM"

